targetEntity: FMS kinase (Homo sapiens)
Sequence (P07333 20-972): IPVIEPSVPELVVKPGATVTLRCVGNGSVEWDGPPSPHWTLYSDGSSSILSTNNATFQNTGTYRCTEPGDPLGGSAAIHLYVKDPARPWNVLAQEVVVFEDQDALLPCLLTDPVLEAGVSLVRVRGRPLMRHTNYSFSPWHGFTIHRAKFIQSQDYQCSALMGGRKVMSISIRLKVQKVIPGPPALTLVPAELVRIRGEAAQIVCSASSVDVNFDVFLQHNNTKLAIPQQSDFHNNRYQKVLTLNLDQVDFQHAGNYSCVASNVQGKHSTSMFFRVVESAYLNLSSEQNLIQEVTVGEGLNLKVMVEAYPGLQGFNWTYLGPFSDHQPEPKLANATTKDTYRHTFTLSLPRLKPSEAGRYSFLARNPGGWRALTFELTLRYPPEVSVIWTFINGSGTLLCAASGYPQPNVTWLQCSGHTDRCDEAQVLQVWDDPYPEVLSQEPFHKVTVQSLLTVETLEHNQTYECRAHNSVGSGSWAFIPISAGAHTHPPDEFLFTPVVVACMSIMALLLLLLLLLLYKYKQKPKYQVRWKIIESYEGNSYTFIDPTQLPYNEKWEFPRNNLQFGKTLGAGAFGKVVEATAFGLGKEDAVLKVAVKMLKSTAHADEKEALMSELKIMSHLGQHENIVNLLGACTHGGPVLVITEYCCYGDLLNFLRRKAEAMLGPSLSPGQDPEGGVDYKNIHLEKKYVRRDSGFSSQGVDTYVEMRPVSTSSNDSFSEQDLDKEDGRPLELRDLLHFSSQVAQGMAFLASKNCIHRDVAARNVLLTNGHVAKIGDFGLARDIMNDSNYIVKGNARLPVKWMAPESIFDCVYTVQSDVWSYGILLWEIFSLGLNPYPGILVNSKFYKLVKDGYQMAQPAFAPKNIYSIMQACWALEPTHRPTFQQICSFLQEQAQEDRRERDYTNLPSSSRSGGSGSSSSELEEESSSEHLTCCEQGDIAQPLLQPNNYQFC
testReadout: IC50 (nM)

Observe how each entry below is paired with its result.
N#Cc1cc2cnc(Nc3ccc4c(c3)CCNC4)nc2n(CC2CCCCC2)c1=O [Compound No. 347]
3
CN(C)C1Cc2ccc(Nc3ncc4cc(C#N)c(=O)n(C5CCCC5)c4n3)cc2C1 (stereo not shown) [Compound No. 47]
2.5
CN1CCC(c2ccc(Nc3ncc4cc(C#N)c(=O)n(C5CCCC5)c4n3)cc2F)CC1 [Compound No. 46]
2.5

(P) N#Cc1cc2cnc(Nc3ccc4c(c3)CCNC4)nc2n([C@H]2C[C@@H]3CC[C@H]2C3)c1=O (relative stereo) [Compound No. 354]
(Q) CS(=O)(=O)N1CCC[C@H](Nc2ncc3cc(C#N)c(=O)n(C4CCCC4)c3n2)C1 [Compound No. 364]
Request: // compare measured IC50, left P , right Q , return larger // caller expects the label of the chosen entry
Result: Q

Origin of values: patent US20220273659A1
